Biological target: Neu5Ac(a2-3)Gal(b1-3)GalNAc(b1-4)[Neu5Ac(a2-3)]Gal(b1-4)Glc
Test: glycan array binding signal (z-score within array); higher = stronger binding
Conditions: glycan notation: IUPAC condensed, linker removed
The entries come from a sample that favours the strongest signals as a whole.
experimental-endpoint: glycan array binding signal (z-score)
The response must contain the number and no unit.

{"columns": ["binder", "glycan array binding signal (z-score)"],
 "data": [
  ["Pwp4 (Candida glabrata) (protein) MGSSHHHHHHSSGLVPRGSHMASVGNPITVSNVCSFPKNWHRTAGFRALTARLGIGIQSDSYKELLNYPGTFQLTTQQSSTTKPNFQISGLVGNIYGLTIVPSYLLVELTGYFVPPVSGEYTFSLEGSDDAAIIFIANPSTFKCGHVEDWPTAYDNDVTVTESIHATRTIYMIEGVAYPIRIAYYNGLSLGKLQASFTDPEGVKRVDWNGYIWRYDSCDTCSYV", -0.275],
  ["Als3-41 (Candida albicans) (protein) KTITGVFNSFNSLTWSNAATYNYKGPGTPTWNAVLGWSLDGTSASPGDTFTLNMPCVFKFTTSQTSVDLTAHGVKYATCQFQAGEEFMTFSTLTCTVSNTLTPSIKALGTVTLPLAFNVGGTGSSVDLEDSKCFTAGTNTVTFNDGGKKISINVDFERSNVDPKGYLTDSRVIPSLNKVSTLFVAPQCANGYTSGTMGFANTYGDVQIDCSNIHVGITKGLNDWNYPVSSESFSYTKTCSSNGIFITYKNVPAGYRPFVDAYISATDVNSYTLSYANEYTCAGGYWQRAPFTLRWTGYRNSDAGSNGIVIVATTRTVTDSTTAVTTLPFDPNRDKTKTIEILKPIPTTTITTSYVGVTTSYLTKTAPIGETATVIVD", -0.31],
  ["HA-00510 (Pseudomonas aeruginosa), Q02V39_PSEAB (protein) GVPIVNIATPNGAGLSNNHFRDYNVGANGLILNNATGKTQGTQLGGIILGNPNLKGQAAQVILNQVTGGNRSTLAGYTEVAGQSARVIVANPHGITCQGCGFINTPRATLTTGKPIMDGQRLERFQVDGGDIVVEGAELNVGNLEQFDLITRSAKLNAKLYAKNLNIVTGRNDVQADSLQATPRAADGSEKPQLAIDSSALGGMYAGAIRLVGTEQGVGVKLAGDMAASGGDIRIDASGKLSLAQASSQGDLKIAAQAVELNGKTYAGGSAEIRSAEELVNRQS", 0.112]
]}

Enquiry: Give its glycan array binding signal (z-score) value. Item: SSR2 (Sclerotium rolfsii) (protein) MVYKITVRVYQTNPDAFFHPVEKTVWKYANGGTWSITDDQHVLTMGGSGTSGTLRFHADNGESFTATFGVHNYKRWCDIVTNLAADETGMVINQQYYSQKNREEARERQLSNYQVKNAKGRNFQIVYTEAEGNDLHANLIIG
Return: -0.28

Enquiry: Which glycan array binding signal (z-score) value belongs to PNGase F (Flavobacterium meningosepticum) (protein) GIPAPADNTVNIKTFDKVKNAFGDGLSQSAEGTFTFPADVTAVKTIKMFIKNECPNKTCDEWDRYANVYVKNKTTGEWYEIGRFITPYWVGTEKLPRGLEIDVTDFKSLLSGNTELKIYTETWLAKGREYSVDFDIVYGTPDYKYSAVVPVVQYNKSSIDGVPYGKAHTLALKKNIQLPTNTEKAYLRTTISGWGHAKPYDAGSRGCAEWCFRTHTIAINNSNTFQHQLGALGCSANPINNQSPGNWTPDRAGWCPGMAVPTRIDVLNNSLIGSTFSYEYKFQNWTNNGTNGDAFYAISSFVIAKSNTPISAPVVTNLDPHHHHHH ?
Return: -0.289

Enquiry: Which glycan array binding signal (z-score) value is on record for SAG1 (Toxoplasma gondii), P13664 (protein) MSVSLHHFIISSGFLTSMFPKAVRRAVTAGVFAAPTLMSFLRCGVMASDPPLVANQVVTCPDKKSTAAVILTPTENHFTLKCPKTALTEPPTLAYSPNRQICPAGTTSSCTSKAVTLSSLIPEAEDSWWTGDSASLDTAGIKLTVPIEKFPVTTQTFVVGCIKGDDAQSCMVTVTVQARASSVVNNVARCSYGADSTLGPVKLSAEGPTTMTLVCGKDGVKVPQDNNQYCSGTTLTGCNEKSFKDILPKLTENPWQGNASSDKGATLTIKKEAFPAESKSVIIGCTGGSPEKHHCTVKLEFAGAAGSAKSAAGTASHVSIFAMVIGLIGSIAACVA ?
Return: 0.728

Enquiry: Recorded glycan array binding signal (z-score) for RfpC (Mycobacterium tuberculosum), O07747 (protein) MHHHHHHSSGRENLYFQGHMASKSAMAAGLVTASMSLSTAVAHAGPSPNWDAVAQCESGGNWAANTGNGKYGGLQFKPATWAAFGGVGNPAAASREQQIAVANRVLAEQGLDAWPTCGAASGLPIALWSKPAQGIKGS , please?
Return: -0.923

Enquiry: I would be grateful if you could share the reported glycan array binding signal (z-score) for CIH1 (Colletotrichum higginsianum) (protein) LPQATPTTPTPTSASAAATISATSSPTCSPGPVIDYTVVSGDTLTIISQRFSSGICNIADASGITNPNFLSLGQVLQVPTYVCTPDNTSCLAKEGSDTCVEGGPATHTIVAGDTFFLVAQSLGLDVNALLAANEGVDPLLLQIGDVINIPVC .
Return: -0.055

Enquiry: Look at this binder and give its reported glycan array binding signal (z-score). SrpA (Streptococcus sanguis) (protein) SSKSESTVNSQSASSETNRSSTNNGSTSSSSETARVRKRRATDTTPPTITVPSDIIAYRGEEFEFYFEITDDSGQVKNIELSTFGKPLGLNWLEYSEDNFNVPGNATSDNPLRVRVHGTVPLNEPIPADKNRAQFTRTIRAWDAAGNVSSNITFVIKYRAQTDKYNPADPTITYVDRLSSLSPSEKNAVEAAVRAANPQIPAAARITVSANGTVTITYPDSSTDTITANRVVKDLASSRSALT
Return: -0.383

Enquiry: Give its glycan array binding signal (z-score) value. Item: MIC4-A5 (Toxoplasma gondii), Q9XZH7 (protein) SPDFHDEVECVHTGNIGSKAQTIGEVKRASSLSECRARCQAEKECSHYTYNVKSGLCYPKRGKPQFYKYLGDMTGSRTCDTS
Return: -0.191

Enquiry: Which glycan array binding signal (z-score) value belongs to Aap arpt (Staphylococcus epidermidis) (protein) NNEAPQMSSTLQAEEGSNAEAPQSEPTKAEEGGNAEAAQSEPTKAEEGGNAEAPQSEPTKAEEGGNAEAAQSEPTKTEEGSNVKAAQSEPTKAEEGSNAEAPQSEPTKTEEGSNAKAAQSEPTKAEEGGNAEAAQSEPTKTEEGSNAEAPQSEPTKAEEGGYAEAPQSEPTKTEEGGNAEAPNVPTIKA ?
Return: -1.39
